Protocol summary: gradient 5% acetonitrile 3 min, to 50% in 2 min, to 85% in 15 min, held 3 min, 100 µL/min
Test context: column: Zorbax Extend-C18 2.1 x 50 mm; eluents: water / acetonitrile, 0.1% formic acid

| Compound | RP-LC retention time, s |
| --- | --- |
| CCOC(=O)c1c(S(=O)(=O)N2CC=C(c3ccccc3)CC2)n[nH]c1CC | 927 |
| Cc1ccc(-n2nnnc2CN2CCN(C(=O)CSc3nnnn3C)CC2)cc1 | 664 |
| Cc1noc(-c2ccc(NC(=O)c3cccnc3)cc2)n1 | 824 |
| Cc1nc(-c2cccc(F)c2)sc1CCNC(=O)C(=O)Nc1ccccc1Cl | 1160 |
| COc1ccc(C(=O)N2CCc3cc(-c4csc(C5CC5)n4)ccc32)cn1 | 1070 |
| CCn1nc(-c2ccccc2)c(-c2ccccc2)c(C(=O)OC)c1=O | 973 |
| Cc1ccc(C)c(S(=O)(=O)N2CCCN(c3ccc(=O)n(-c4ccccc4)n3)CC2)c1 | 947 |
| Cn1nc(C(=O)N2CCCC2)c2c1CCN(C(=O)Nc1ccccc1Br)C2 | 737 |
| Cc1oc(CNC(=O)Nc2ccccc2Cl)nc1C(=O)N1CCCC1 | 680 |
| CCC(C)OC(=O)C1=C(C)NC(=O)NC1c1ccc(OC)c(O)c1 (stereo unspecified) | 693 |
| Cc1ccccc1CNC(=O)CN1C(=O)CSc2cccn2-c2ccccc21 | 916 |
| CC1Oc2ccc(-c3csc(NC(=O)c4cccc(Br)c4)n3)cc2NC1=O (stereo unspecified) | 995 |
| Cc1nn(C(=O)c2cccnc2)c(C)c1Sc1ccccc1[N+](=O)[O-] | 916 |
| CCCCc1ccc(Nc2ncccc2S(N)(=O)=O)cc1 | 1060 |
| CC(C)CNC(=O)N1CCN(Cc2nc3cc(C(=O)N(C)C)ccc3o2)CC1 | 579 |
| CN(C)CCNC(=O)c1cc(N2CCCC2)n2nccc2n1 | 590 |
| O=C1CC(c2nc(-c3ccccc3F)no2)CN1c1cccc(Cl)c1 (stereo unspecified) | 977 |
| O=C(COc1ccccc1F)Nc1nnc(C2CCCCC2)o1 | 766 |
| COCCC1CCN(C(=O)CN(C)C(=O)c2ccc(C#N)cc2)CC1 | 666 |
| O=C(c1cccs1)N1CCC(c2nnc(-c3ccc(F)cc3)o2)CC1 | 733 |
| Cc1nn2c(S(=O)(=O)NCC3CC3)c(C)nc2s1 | 690 |

----------
Protocol summary: gradient 5% acetonitrile 3 min, to 50% in 2 min, to 85% in 15 min, held 3 min, 100 µL/min
Test context: column: Zorbax Extend-C18 2.1 x 50 mm; eluents: water / acetonitrile, 0.1% formic acid

| Compound | Measurement units | RP-LC retention time |
| --- | --- | --- |
| CCOc1ccc(C2c3[nH]c4ccccc4c3CCN2C(=O)C2CC2)cc1 (stereo not given) | s | 1090 |
| O=C(NCCc1ccccc1)N1C[C@@H]2C[C@H]1C[C@@H]2NS(=O)(=O)c1ccccc1 | s | 820 |
| O=c1c2cnc3nc(-c4ccc(Cl)cc4)nn3c2ccn1CCCO | s | 714 |
| CCc1cc(C(=O)N2CCN(CC)CC2)nc2cc(-c3ccco3)nn12 | s | 616 |
| COc1ccccc1CC(=O)Nc1cccn2cnnc12 | s | 674 |
| Cc1ccc(-n2nc(CO)c(C(=O)NCc3ccc4c(c3)OCO4)n2)cc1 | s | 940 |
| Cc1nn(CC(=O)N2CCc3ccccc32)c(=O)c2nn(-c3ccccc3)c(C)c12 | s | 1050 |
| O=C(Cn1cccn1)N1CCCC(COCc2ccccc2)C1 (stereo not given) | s | 709 |
| O=C(NCc1ccccc1Cl)c1nc(Cn2c(=O)oc3ccccc32)no1 | s | 946 |
| O=S(=O)(c1ccc2c(c1)-c1oncc1CO2)N1CCC2(CC1)OCCO2 | s | 827 |
| CCn1cc(C(=O)N[C@@H](C)C(=O)O)c(=O)c2cc3c(cc21)OCO3 | s | 631 |
| COCc1cc(=O)n(CC(=O)Nc2cccc(OC)c2)c(N2CCOCC2)n1 | s | 779 |
| O=C(Nc1nc(-c2ccc(-c3ccccc3)cc2)cs1)C1CCCC1 | s | 1260 |
| COc1cccc(C2=Nc3cccnc3N(CC(=O)NCc3ccco3)C(=O)C2)c1 | s | 809 |
| CN(CC1CCOC1)C(=O)NCc1ccc(F)cc1 (stereo not given) | s | 669 |
| O=C(CN1C(=O)C2CCCCN2c2ccc(C(=O)N3CCCCC3)cc21)NC1CCCCC1 (stereo not given) | s | 889 |
| Cc1[nH]c(C)c(S(=O)(=O)N2CCC(C(=O)NC3CCCCC3)CC2)c1C(=O)N1CCCC1 | s | 676 |
| CSc1cccc(NC(=O)Cn2cccc2-c2nc(-c3ccc4c(c3)OCO4)no2)c1 | s | 1110 |
| COc1ccc(C(C)NC(=O)c2nnc(-c3ccc(S(=O)(=O)N(C)C)cc3)o2)cc1 (stereo not given) | s | 893 |
| Cc1cc(C(=O)NC2CCCCCC2)n[nH]1 | s | 724 |
